- protocolSummary: solvent given as SMILES
- details: in C1CCOC1
Recorded absorption maximum, one value per entry.
Please give a number only; it is taken to be in nm.

[
  {
    "compoundSmiles": "COc1cc(-c2nnc(-c3ccc4ccc5cccc6ccc3c4c56)o2)cc(OC)c1OC",
    "absorption maximum, nm": 393
  },
  {
    "compoundSmiles": "C(=C(c1ccccc1)c1ccccc1)c1ccc(-c2ccc(-c3nc4c5ccccc5c5ccccc5c4n3-c3cccc(-c4ccc(C=C(c5ccccc5)c5ccccc5)cc4)c3)cc2)cc1",
    "absorption maximum, nm": 340
  },
  {
    "compoundSmiles": "O=C(O)c1c2ccccc2nc2ccccc12",
    "absorption maximum, nm": 360
  },
  {
    "compoundSmiles": "CC(=O)Nc1ccc(S(=O)(=O)O)c(/N=N/c2c(O)c3ccccc3n(C)c2=O)c1",
    "absorption maximum, nm": 435
  }
]

Query molecule follows.
For O=[N+]([O-])c1ccc(NCCNCc2c3ccccc3cc3ccccc23)c([N+](=O)[O-])c1 , what is its reported absorption maximum? 349

* * *

Recorded absorption maximum, one value per entry.
- protocolSummary: solvent given as SMILES
- details: in ClCCl
Please give a number only; it is taken to be in nm.

Example entries begin here.
[
  {
    "molecule": "CCOC(=O)c1sc(-c2ccc(-c3cc(C4CC4)c(C(=O)OCC)s3)s2)cc1C1CC1",
    "readoutKind": "absorption maximum",
    "numericResult": 395
  },
  {
    "molecule": "F[B-]1(F)OC(/C=C/c2ccccc2)=CC(c2ccccc2)=[O+]1",
    "readoutKind": "absorption maximum",
    "numericResult": 398
  },
  {
    "molecule": "CC(C)(C)c1ccc2ccc3c(C(C)(C)C)ccc4ccc1c2c43",
    "readoutKind": "absorption maximum",
    "numericResult": 348
  }
]

For COC(=O)C1=C(C(=O)OC)C2(c3ccccc3-c3c(Br)cc(Br)cc32)C2(/C=C/c3ccc(Cl)cc3)c3cc(OC)c(OC)cc3CCN12 (stereo not drawn) , what is its reported absorption maximum? 328

Ok, now CCOC(=O)c1c(-c2cc3ccccc3oc2=O)nn(-c2ccc(Br)cc2)c1C(=O)OCC 323

Ok, now C[P+]1(c2ccccc2)C2=C(c3ccccc31)S(=O)(=O)c1ccccc12 (stereo not drawn) 395

Ok, now CN(C)c1ccc(/C=C/c2cc(/C=C/c3ccc(N(C)C)cc3)nc(/C=C/c3ccc(C(F)(F)F)cc3)n2)cc1 429

Ok, now CCN(CC)c1ccc2cc(/C=C(\C#N)c3nc4ccccc4o3)c(=O)oc2c1 511

Ok, now O=C(N/N=C/c1ccccc1O)c1ccccc1O 335

Ok, now CCN(CC)c1ccc2c(c1)oc(=O)c1cc3c(-c4ccccc4)nn(-c4ccccc4)c3nc12 359

Ok, now COC(=O)c1[nH]c(-c2ccc([N+](=O)[O-])cc2)c2nnc3ccc(OC)cc3c12 436

Ok, now Cc1cc(-c2ccc(C(C)(C)C)cc2)c2nsnc2c1-c1ccc(N(c2ccccc2)c2ccccc2)cc1 402

Ok, now CC(C)(C)c1cc(-c2ccc(-c3cccs3)s2)c2c(c1)c1cc(C(C)(C)C)cc(-c3ccc(-c4cccs4)s3)c1n2-c1ccc(-c2cccs2)s1 340

Ok, now N#Cc1ccccc1N1c2sc3ccccc3c2Sc2c1sc1ccccc21 411

Ok, now COc1ccc(-c2c3ccccc3c3n2[B-](F)(F)[N+]2=Cc4c5ccccc5c(-c5ccc(OC)cc5)n4[B-](F)(F)[N+]2=C3)cc1 571

* * *

- protocolSummary: solvent given as SMILES
- details: in ClC(Cl)Cl
readoutKind: absorption maximum (nm)
Please give a number only; it is taken to be in nm.

[
  {
    "compoundSmiles": "Cc1ccccc1Oc1ccc2c3c(cccc13)C(=O)N(CCO)C2=O",
    "absorption maximum, nm": 355
  },
  {
    "compoundSmiles": "CON(OC)c1cc2c3cc(-c4c(C)cc(C)cc4C)cc4c5cc(-c6c(C)cc(C)cc6C)cc6c7cc(B(c8c(C)cc(C)cc8C)c8c(C)cc(C)cc8C)cc8c9cc(-c%10c(C)cc(C)cc%10C)cc%10c%11cc(-c%12c(C)cc(C)cc%12C)cc%12c(c1)c2c1c(c43)c(c65)c(c78)c(c9%10)c1c%11%12",
    "absorption maximum, nm": 449
  },
  {
    "compoundSmiles": "C(#Cc1ccc(-n2c3ccccc3c3ccccc32)cc1)c1ccccc1",
    "absorption maximum, nm": 326
  }
]

Query compound follows.
For CC(=C(C#Cc1ccccc1)C#Cc1ccccc1)c1ccc(C(C)=C(C#Cc2ccccc2)C#Cc2ccccc2)cc1 , what is its reported absorption maximum? 360

* * *

- protocolSummary: solvent given as SMILES
- details: in Cc1ccccc1
Sorting guide: entries reporting absorption maximum beneath 400 nm go in the Yes pile, the rest go in the No pile.

Reference set, count: 5
[
  {
    "compound": "N#Cc1ccc(-n2c3ccccc3c3c2c2ccccc2n3-c2ccccc2)cc1",
    "classAssignment": "Yes"
  },
  {
    "compound": "C1=[N+](c2ccccc2)[B-](c2ccccc2)(c2ccccc2)Oc2c1ccc1c3c(ccc21)C=[N+](c1ccccc1)[B-](c1ccccc1)(c1ccccc1)O3",
    "classAssignment": "No"
  },
  {
    "compound": "Cc1ccc(-n2c3ccccc3c3cc(C(=C(C#N)C#N)c4ccccc4)ccc32)cc1",
    "classAssignment": "No"
  },
  {
    "compound": "CC1=C(c2cccs2)C(C)=[N+]2C1=C(c1ccccc1)c1c(C)c(-c3cccs3)c(C)n1[B-]2(F)F",
    "classAssignment": "No"
  },
  {
    "compound": "CN(C)c1ccc2c3c(ccc2c1)C(=O)CCC3",
    "classAssignment": "Yes"
  }
]

Item C(#Cc1ccc(-n2c3ccccc3c3ccccc32)cc1)c1ccccc1 : absorption maximum beneath 400 nm, strictly? Yes

Ok, now CCN(CC)c1ccc2cc(/C=C/c3cccc[n+]3CCCS(=O)(=O)[O-])c(=O)oc2c1 No

Ok, now CCCCC(CC)CN1C(=O)c2cc(Oc3ccc(OC)cc3)c3c4c(Oc5ccc(C(C)(C)C)cc5)cc5c6c(cc(Oc7ccc(C(C)(C)C)cc7)c(c7c(Oc8ccc(OC)cc8)cc(c2c37)C1=O)c64)C(=O)N(c1c(C(C)C)cccc1C(C)C)C5=O (stereo unspecified) No

Ok, now CCC1=C(C)C2=Cc3c4ccccc4c4n3[B-](c3ccccc3)(Oc3ccccc3-4)[N+]2=C1C (stereo unspecified) No

Ok, now C1=C(c2ccccc2)C2=Nc3c(-c4ccccc4)cc4n3[B-]3(Oc5ccccc5C1=[N+]23)Oc1ccccc1-4 (stereo unspecified) No

Ok, now CC(=O)c1c2c(cc3c(N(C)C)cccc13)CCC2 Yes

Ok, now CN(C)c1ccc(-c2c(/C=C3/C=Cc4ccccc4N3C)c(=O)c2=O)cc1 Yes

Ok, now CCCCC1(CCCC)c2cc(/C=C/c3ccc(N(c4ccccc4)c4ccccc4)cc3)ccc2-c2cc3c(cc21)-c1ccc(/C=C/c2ccc(N(c4ccccc4)c4ccccc4)cc2)cc1C3(CCCC)CCCC No

Ok, now O=C(c1ccncc1)c1ccc(-n2c3ccc(-n4c5ccccc5c5ccccc54)cc3c3cc(-n4c5ccccc5c5ccccc54)ccc32)cc1 Yes

* * *

Recorded absorption maximum, one value per entry.
- protocolSummary: solvent given as SMILES
- details: in CO
Please give a number only; it is taken to be in nm.

Example entries begin here.
[
  {
    "compoundSmiles": "Cc1cccc2nc3c(=O)[nH]c(=O)[nH]c3nc12",
    "absorption maximum / nm": 382
  },
  {
    "compoundSmiles": "CN(C)c1ccc2nc(-c3ccc(C(=O)OC[C@H](NC(=O)OC(C)(C)C)C(=O)OCc4ccccc4)cc3)sc2c1",
    "absorption maximum / nm": 397
  },
  {
    "compoundSmiles": "N#CC(C#N)=Cc1cn(-c2ccccc2)nc1-c1ccc([N+](=O)[O-])cc1",
    "absorption maximum / nm": 345
  },
  {
    "compoundSmiles": "COc1ccc(C2=C3C=c4c(oc5cc6c(cc45)[C@H]4CC[C@]5(C)C(=O)CC[C@H]5[C@@H]4CC6)=[N+]3[B-](F)(F)n3c2cc2c4cc5c(cc4oc23)CC[C@@H]2[C@@H]5CC[C@]3(C)C(=O)CC[C@@H]23)cc1",
    "absorption maximum / nm": 595.5
  },
  {
    "compoundSmiles": "CC(=O)Nc1ccc(S(=O)(=O)O)c(/N=N/c2c(O)c3ccccc3n(C)c2=O)c1",
    "absorption maximum / nm": 423
  },
  {
    "compoundSmiles": "CC1=CC(C)=[N+]2C1=C(C)c1cccn1[B-]2(F)F",
    "absorption maximum / nm": 486
  }
]

Query compound follows.
For CCNc1cc2c(cc1C)C(c1ccccc1C(=O)O)=C1CCCC(/C=C/C3=[N+](C)c4ccc5ccccc5c4C3(C)C)=C1O2 , what is its reported absorption maximum? 710
